- Test system: MCF-7 (breast cancer) cell line
- test.description: MTT cell viability assay, MCF-7
- Format: cell-based, human
- experimental.parameters: MTT, 72 h, 1-100 µM, mean ± SD
pIC50: −log10 of the molar value.
Returns one of y or n; y when pIC50 is >= 4.

Record excerpt, results attached:
>>> group_label("Cc1cc(S(=O)(=O)N=c2[nH]c3ccccc3[nH]2)c(SCc2nc(N)nc(N3CCN(S(=O)(=O)c4ccccc4)CC3)n2)cc1Cl [Compound 32]")
"n"
>>> group_label("Cc1cc(S(=O)(=O)N=c2[nH]c3ccc(F)cc3[nH]2)c(SCc2nc(N)nc(N3CCN(c4ccc(Cl)cc4)CC3)n2)cc1Cl [Compound 39]")
"y"
>>> group_label("Cc1cc(S(=O)(=O)N=c2[nH]c3ccccc3[nH]2)c(SCc2nc(N)nc(N3CCN(c4ccc([N+](=O)[O-])cc4)CC3)n2)cc1Cl [Compound 29]")
"n"
>>> group_label("Cc1cc(S(=O)(=O)N=c2[nH]c3ccc(Cl)cc3[nH]2)c(SCc2nc(N)nc(N3CCN(c4ccc(F)cc4)CC3)n2)cc1Cl [Compound 46]")
"y"
>>> group_label("Cc1cc(S(=O)(=O)N=c2[nH]c3ccccc3[nH]2)c(SCc2nc(N)nc(N3CCN(c4ccc(C(F)(F)F)cc4)CC3)n2)cc1Cl [Compound 22]")
"y"

Proceed to the following item.
Prompt line: Does N.N.[Cl][Pt][Cl] [cisplatin, reference compound] have a reported pIC50 of at least 4?
Response line: y

Provenance of the data: paper PMC7215599
